B1: Calcium-binding protein 2, residues 155 to 219; numbered along this chain, Q9NPB3 (parent)
chain: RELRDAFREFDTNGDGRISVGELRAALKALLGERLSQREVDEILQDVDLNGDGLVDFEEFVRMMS

# Variants of: B1
# method: abundance fitness (aPCA) (normalised: wild type 0, dead -1); higher = more abundant; growth selection in yeast, the domain comes from the species named
# reported-conditions: Homo sapiens
reported-metric: abundance fitness
The reply should be a number, written without any unit.

See these solved cases before continuing.
{"variant-name": "F60S", "abundance fitness": -0.326}
{"variant-name": "L23P", "abundance fitness": -0.592}
{"variant-name": "G14W", "abundance fitness": -0.718}
{"variant-name": "R17C", "abundance fitness": 0.141}
{"variant-name": "L31R", "abundance fitness": -0.043}

Problem: What value of abundance fitness has been reported for the following variant? R38P
Result: -0.056

Problem: What value of abundance fitness has been reported for the following variant? M63K
Result: -0.459
